test system: Homo sapiens; assay: AUC in healthy Chinese subject (8 subjects) with homozygous wild type NAT2 genotype assessed as N-acetylisoniazid at 300 mg, po administered after overnight fast by HPLC method; format: ADME, organism-based; settings: in vivo
VALUE_KIND: AUC (ng·h/mL)
The answer is to be given in ng·h/mL; state only the numeric part.

Query: Would you mind telling me what AUC value was observed for NNC(=O)c1ccncc1 ?
Result: 42200

----------
test system: Homo sapiens; experiment: AUC in healthy Chinese subject (8 subjects) with homozygous mutant of NAT2 genotype assessed as N-acetylisoniazid at 300 mg, po administered after overnight fast by HPLC method; format: ADME, organism-based; conditions: in vivo
VALUE_KIND: AUC (ng·h/mL)
The answer is to be given in ng·h/mL; state only the numeric part.

Query: Missing value: AUC, Homo sapiens, entry NNC(=O)c1ccncc1 . Fill in?
Result: 19800

----------
system: Homo sapiens; assay: AUC in healthy Chinese subject (8 subjects) with homozygous wild type NAT2 genotype at 300 mg, po administered after overnight fast by HPLC method; assay type: ADME, organism-based; conditions: in vivo
VALUE_KIND: AUC (µg·h/mL)
The answer is to be given in µg·h/mL; state only the numeric part.

Query: Would you mind telling me what AUC value was observed for NNC(=O)c1ccncc1 ?
Result: 10.3

----------
experiment: Clearance in healthy Chinese subject (8 subjects) with heterozygous mutant of NAT2 genotype at 300 mg, po administered after overnight fast by HPLC method; type: ADME, organism-based; details: human, in vivo
VALUE_KIND: CL/F

Query: Would you mind telling me what CL/F value was observed for NNC(=O)c1ccncc1 ?
Result: 320 mL/min

----------
assay: Cmax in healthy Chinese subject (8 subjects) with homozygous mutant of NAT2 genotype at 300 mg, po administered after overnight fast by HPLC method; assay type: ADME, organism-based; parameters: dose 300 mg, route oral; conditions: human, in vivo
VALUE_KIND: Cmax

Query: Would you mind telling me what Cmax value was observed for NNC(=O)c1ccncc1 ?
Result: 8280 ng/mL

----------
test: Cmax in healthy Chinese subject (8 subjects) with heterozygous mutant of NAT2 genotype at 300 mg, po administered after overnight fast by HPLC method; format: ADME, organism-based; parameters: dose 300 mg, route oral; conditions: human, in vivo
VALUE_KIND: Cmax (ng/mL)
The answer is to be given in ng/mL; state only the numeric part.

Query: Would you mind telling me what Cmax value was observed for NNC(=O)c1ccncc1 ?
Result: 5720

----------
assay: Cmax in healthy Chinese subject (8 subjects) with homozygous wild type NAT2 genotype at 300 mg, po administered after overnight fast by HPLC method; format: ADME, organism-based; set-up: dose 300 mg, route oral; conditions: human, in vivo
VALUE_KIND: Cmax
Reply with the number and its unit after it.

Query: Would you mind telling me what Cmax value was observed for NNC(=O)c1ccncc1 ?
Result: 4930 ng/mL

----------
assay: Clearance in healthy Chinese subject (8 subjects) with homozygous wild type NAT2 genotype at 300 mg, po administered after overnight fast by HPLC method; assay type: ADME, organism-based; conditions: human, in vivo
VALUE_KIND: CL/F (mL/min)
The answer is to be given in mL/min; state only the numeric part.

Query: Would you mind telling me what CL/F value was observed for NNC(=O)c1ccncc1 ?
Result: 501
